Recorded AUC(0-t), one value per entry.
- Protocol text: AUC (0 to t) in beagle dog at 2 mg/kg, po administered as single dose by UPLC-MS/MS analysis
- Assay type: ADME, organism-based, Canis lupus familiaris
- Particulars: in vivo
Remember to put the unit after the number in your answer.

CC[Si](CC)(CC)c1ccc(N2[C@H](c3ccc(NC(=O)[C@@H]4CCCN4C(=O)[C@@H](NC(=O)OC)C(C)C)cc3)CC[C@H]2c2ccc(NC(=O)[C@@H]3CCCN3C(=O)[C@@H](NC(=O)OC)C(C)C)cc2)cc1    605 ng·h/mL

Let's switch to this compound now.
Query: AUC(0-t); subject: COC(=O)N[C@H](C(=O)N1CCC[C@H]1C(=O)Nc1ccc([C@@H]2CC[C@@H](c3ccc(NC(=O)[C@@H]4CCCN4C(=O)[C@@H](NC(=O)OC)C(C)C)cc3)N2c2ccc(C(C)(C)C)cc2)cc1)C(C)C
188 ng·h/mL

###

- Protocol text: Half life in mouse at 10 mg/kg, ig administered as single dose by UPLC-MS/MS analysis
- Format: ADME, organism-based
- Particulars: in vivo, po
Value type: half-life
Remember to put the unit after the number in your answer.

COC(=O)N[C@H](C(=O)N1CCC[C@H]1C(=O)Nc1ccc([C@@H]2CC[C@@H](c3ccc(NC(=O)[C@@H]4CCCN4C(=O)[C@@H](NC(=O)OC)C(C)C)cc3)N2c2ccc(C(C)(C)C)cc2)cc1)C(C)C    7.7 h
CC[Si](CC)(CC)c1ccc(N2[C@H](c3ccc(NC(=O)[C@@H]4CCCN4C(=O)[C@@H](NC(=O)OC)C(C)C)cc3)CC[C@H]2c2ccc(NC(=O)[C@@H]3CCCN3C(=O)[C@@H](NC(=O)OC)C(C)C)cc2)cc1    22.5 h
COC(=O)N[C@H](C(=O)N1CCC[C@H]1C(=O)Nc1ccc([C@@H]2CC[C@@H](c3ccc(NC(=O)[C@@H]4CCCN4C(=O)[C@@H](NC(=O)OC)C(C)C)cc3)N2c2ccc([Si](C)(C)C)cc2)cc1)C(C)C    8.8 h

Let's switch to this compound now.
Query: half-life; subject: COC(=O)N[C@H](C(=O)N1CCC[C@H]1C(=O)Nc1ccc([C@@H]2CC[C@@H](c3ccc(NC(=O)[C@@H]4CCCN4C(=O)[C@@H](NC(=O)OC)C(C)C)cc3)N2c2ccc([Si](C)(C)C(C)(C)C)cc2)cc1)C(C)C
34.7 h

###

- Protocol text: Protein binding in mouse plasma at 10 uM after 6 hrs by UPLC-MS/MS based equilibrium dialysis method
- Format: ADME, cell-free
- Particulars: read-out: PPB (converted)
Value type: fraction unbound at 6 h, 10 µM
Lab note: write the figure by itself, no unit.

CC[Si](CC)(CC)c1ccc(N2[C@H](c3ccc(NC(=O)[C@@H]4CCCN4C(=O)[C@@H](NC(=O)OC)C(C)C)cc3)CC[C@H]2c2ccc(NC(=O)[C@@H]3CCCN3C(=O)[C@@H](NC(=O)OC)C(C)C)cc2)cc1    0.00011

Query: fraction unbound at 6 h, 10 µM; subject: COC(=O)N[C@H](C(=O)N1CCC[C@H]1C(=O)Nc1ccc([C@@H]2CC[C@@H](c3ccc(NC(=O)[C@@H]4CCCN4C(=O)[C@@H](NC(=O)OC)C(C)C)cc3)N2c2ccc(C(C)(C)C)cc2)cc1)C(C)C
1e-05

###

- Protocol text: Half life in beagle dog at 2 mg/kg, po administered as single dose by UPLC-MS/MS analysis
- Assay type: ADME, organism-based, Canis lupus familiaris
- Particulars: in vivo
Value type: half-life
Remember to put the unit after the number in your answer.

COC(=O)N[C@H](C(=O)N1CCC[C@H]1C(=O)Nc1ccc([C@@H]2CC[C@@H](c3ccc(NC(=O)[C@@H]4CCCN4C(=O)[C@@H](NC(=O)OC)C(C)C)cc3)N2c2ccc(C(C)(C)C)cc2)cc1)C(C)C [OMBITASVIR]    11.1 h

Let's switch to this compound now.
Query: half-life; subject: CC[Si](CC)(CC)c1ccc(N2[C@H](c3ccc(NC(=O)[C@@H]4CCCN4C(=O)[C@@H](NC(=O)OC)C(C)C)cc3)CC[C@H]2c2ccc(NC(=O)[C@@H]3CCCN3C(=O)[C@@H](NC(=O)OC)C(C)C)cc2)cc1
12.7 h

###

Recorded Kp at 24 h, one value per entry.
- Protocol text: Ratio of drug uptake in Sprague-Dawley rat liver to plasma at 10 mg/kg, ig administered as single dose measured after 24 hrs by UPLC-MS/MS analysis
- Format: ADME, organism-based
- Particulars: po
Lab note: write the figure by itself, no unit.

COC(=O)N[C@H](C(=O)N1CCC[C@H]1C(=O)Nc1ccc([C@@H]2CC[C@@H](c3ccc(NC(=O)[C@@H]4CCCN4C(=O)[C@@H](NC(=O)OC)C(C)C)cc3)N2c2ccc(C(C)(C)C)cc2)cc1)C(C)C    22.3

Let's switch to this molecule now.
Query: Kp at 24 h; subject: CC[Si](CC)(CC)c1ccc(N2[C@H](c3ccc(NC(=O)[C@@H]4CCCN4C(=O)[C@@H](NC(=O)OC)C(C)C)cc3)CC[C@H]2c2ccc(NC(=O)[C@@H]3CCCN3C(=O)[C@@H](NC(=O)OC)C(C)C)cc2)cc1
31.9

###

- Protocol text: Metabolic stability in mouse liver microsomes assessed as parent compound remaining at 0.2 uM preincubated for 5 mins followed by NADPH addition measured up to 60 mins by UPLC-MS/MS analysis
- Assay type: ADME, microsome
- Particulars: read-out: Stability
Value type: remaining at 1 h, 0.2 µM (%)
State just the number; it will be interpreted in %.

Some entries whose results are on file:
CC[Si](CC)(CC)c1ccc(N2[C@H](c3ccc(NC(=O)[C@@H]4CCCN4C(=O)[C@@H](NC(=O)OC)C(C)C)cc3)CC[C@H]2c2ccc(NC(=O)[C@@H]3CCCN3C(=O)[C@@H](NC(=O)OC)C(C)C)cc2)cc1    92.7
COC(=O)N[C@H](C(=O)N1CCC[C@H]1C(=O)Nc1ccc([C@@H]2CC[C@@H](c3ccc(NC(=O)[C@@H]4CCCN4C(=O)[C@@H](NC(=O)OC)C(C)C)cc3)N2c2ccc([Si](C)(C)C)cc2)cc1)C(C)C    93.3
COC(=O)N[C@H](C(=O)N1CCC[C@H]1C(=O)Nc1ccc([C@@H]2CC[C@@H](c3ccc(NC(=O)[C@@H]4CCCN4C(=O)[C@@H](NC(=O)OC)C(C)C)cc3)N2c2ccc([Si](C)(C)C(C)(C)C)cc2)cc1)C(C)C    92.1

Let's switch to this compound now.
Query: remaining at 1 h, 0.2 µM; subject: COC(=O)N[C@H](C(=O)N1CCC[C@H]1C(=O)Nc1ccc([C@@H]2CC[C@@H](c3ccc(NC(=O)[C@@H]4CCCN4C(=O)[C@@H](NC(=O)OC)C(C)C)cc3)N2c2ccc(C(C)(C)C)cc2)cc1)C(C)C [OMBITASVIR]
88.7

###

- Protocol text: AUC (0 to t) in mouse at 10 mg/kg, ig administered as single dose by UPLC-MS/MS analysis
- Type: ADME, organism-based
- Particulars: in vivo, po
Value type: AUC(0-t) (ng·h/mL)
State just the number; it will be interpreted in ng·h/mL.

Some entries whose results are on file:
CC[Si](CC)(CC)c1ccc(N2[C@H](c3ccc(NC(=O)[C@@H]4CCCN4C(=O)[C@@H](NC(=O)OC)C(C)C)cc3)CC[C@H]2c2ccc(NC(=O)[C@@H]3CCCN3C(=O)[C@@H](NC(=O)OC)C(C)C)cc2)cc1    3040
COC(=O)N[C@H](C(=O)N1CCC[C@H]1C(=O)Nc1ccc([C@@H]2CC[C@@H](c3ccc(NC(=O)[C@@H]4CCCN4C(=O)[C@@H](NC(=O)OC)C(C)C)cc3)N2c2ccc([Si](C)(C)C)cc2)cc1)C(C)C    2910
COC(=O)N[C@H](C(=O)N1CCC[C@H]1C(=O)Nc1ccc([C@@H]2CC[C@@H](c3ccc(NC(=O)[C@@H]4CCCN4C(=O)[C@@H](NC(=O)OC)C(C)C)cc3)N2c2ccc([Si](C)(C)C(C)(C)C)cc2)cc1)C(C)C    3520

Let's switch to this molecule now.
Query: AUC(0-t); subject: COC(=O)N[C@H](C(=O)N1CCC[C@H]1C(=O)Nc1ccc([C@@H]2CC[C@@H](c3ccc(NC(=O)[C@@H]4CCCN4C(=O)[C@@H](NC(=O)OC)C(C)C)cc3)N2c2ccc(C(C)(C)C)cc2)cc1)C(C)C [OMBITASVIR]
6480

###

- Protocol text: Protein binding in human plasma at 1 uM after 6 hrs by UPLC-MS/MS based equilibrium dialysis method
- Assay type: ADME, cell-free
- Particulars: read-out: PPB (converted)
Recorded fraction unbound at 6 h, 1 µM, one value per entry.
Lab note: write the figure by itself, no unit.

CC[Si](CC)(CC)c1ccc(N2[C@H](c3ccc(NC(=O)[C@@H]4CCCN4C(=O)[C@@H](NC(=O)OC)C(C)C)cc3)CC[C@H]2c2ccc(NC(=O)[C@@H]3CCCN3C(=O)[C@@H](NC(=O)OC)C(C)C)cc2)cc1    8e-05

Let's switch to this compound now.
Query: fraction unbound at 6 h, 1 µM; subject: COC(=O)N[C@H](C(=O)N1CCC[C@H]1C(=O)Nc1ccc([C@@H]2CC[C@@H](c3ccc(NC(=O)[C@@H]4CCCN4C(=O)[C@@H](NC(=O)OC)C(C)C)cc3)N2c2ccc(C(C)(C)C)cc2)cc1)C(C)C
3e-05
